The reported measurements were obtained from paper PMC11446282.

B1: FAM122A [human (endogenous in HeLa)] / B55α WT (immunopurified, Fig. 2) [not stated] (parent complex)
chain 1: MAQEKMELDLELPPGTGGSPAEGGGSGGGGGLRRSNSAPLIHGLSDTSPVFQAEAPSARRNSTTFPSRHGLLLPASPVRMHSSRLHQIKQEEGMDLINRETVHEREVQTAMQISHSWEESFSLSDNDVEKSASPKRIDFIPVSPAPSPTRGIGKQCFSPSLQSFVSSNGLPPSPIPSPTTRFTTRRSQSPINCIRPSVLGPLKRKCEMETEYQPKRFFQGITNMLSSDVAQLSDPGVCVSSDTLDGNSSSAGSSCNSPAKVSTTTDSPVSPAQAASPFIPLDELSSK
chain 2: MAGAGGGNDIQWCFSQVKGAVDDDVAEADIISTVEFNHSGELLATGDKGGRVVIFQQEQENKIQSHSRGEYNVYSTFQSHEPEFDYLKSLEIEEKINKIRWLPQKNAAQFLLSTNDKTIKLWKISERDKRPEGYNLKEEDGRYRDPTTVTTLRVPVFRPMDLMVEASPRRIFANAHTYHINSISINSDYETYLSADDLRINLWHLEITDRSFNIVDIKPANMEELTEVITAAEFHPNSCNTFVYSSSKGTIRLCDMRASALCDRHSKLFEEPEDPSNRSFFSEIISSISDVKFSHSGRYMMTRDYLSVKIWDLNMENRPVETYQVHEYLRSKLCSLYENDCIFDKFECCWNGSDSVVMTGSYNNFFRMFDRNTKRDITLEASRENNKPRTVLKPRKVCASGKRKKDEISVDSLDFNKKILHTAWHPKENIIAVATTNNLYIFQDKVN

Variants of: B1
assay comment: immunopurification of YFP-B55α variants (IP: YFP), Western blot quantification; read off a plot
metric: percent of parent

Guide cases for percent of parent, answers given:
mutant_designation="chain 2 V228A" metric="percent of parent" result=~100%
mutant_designation="chain 2 S287A" metric="percent of parent" result=~63%
mutant_designation="chain 2 L198A" metric="percent of parent" result=~0%
mutant_designation="chain 2 Y337A" metric="percent of parent" result=~130%
mutant_designation="chain 2 F343A" metric="percent of parent" result=~90%
mutant_designation="chain 2 F280A" metric="percent of parent" result=~140%
mutant_designation="chain 2 H179A" metric="percent of parent" result=~70%
mutant_designation="chain 2 D197A" metric="percent of parent" result=~0%

Summary for this variant, chain 2 I284A : percent of parent is ~97%

Documented percent of parent of chain 2 D340A : ~77%

Lab note: chain 2 L225A gave percent of parent of ~130%

percent of parent reading for chain 2 T230A : ~93%

Please fill in: percent of parent reported for chain 2 Y178A = ~5%
